- Test Summary: Pharmacokinetics of three single doses of sublingual testosterone solution in healthy premenopausal women
- Study Conditions: female, human, in vivo, 0.5 mg, MRT, total testosterone, serum; 0.50 mg sublingual; mean ± SD
Property Name: MRT (min)
Use min as the unit, but write only the number.

Summary for this compound, "C[C@]12CC[C@H]3[C@@H](CCC4=CC(=O)CC[C@@]43C)[C@@H]1CC[C@@H]2O" : MRT is 55.6

---

- Test Summary: Pharmacokinetics of three single doses of sublingual testosterone solution in healthy premenopausal women
- Study Conditions: female, human, in vivo, 0.25 mg, t1/2, free testosterone, serum; 0.25 mg sublingual; mean ± SD
- Description: All 16 subjects received each investigational drug dose once in random order. Wash-out between treatments was at least 48 h. Subjects had serial blood samples drawn via an intravenous catheter. Pharmacokinetic parameters were monitored at baseline and (at 2, 4, 6, 8, 10, 20, 30, 60, 90, 120, 180, 230 min) after dosing. Blood samples in the placebo condition were only measured at −5, 10, 60 and 230 min. […] The pharmacokinetic parameters were analyzed using the WinNonlin software (version 5.1). […]
Property Name: half-life (min)
Use min as the unit, but write only the number.

Summary for this compound, "C[C@]12CC[C@H]3[C@@H](CCC4=CC(=O)CC[C@@]43C)[C@@H]1CC[C@@H]2O" : half-life is 42.3

---

- Test Summary: Pharmacokinetics of three single doses of sublingual testosterone solution in healthy premenopausal women
- Study Conditions: female, human, in vivo, 0.5 mg, MRT, free testosterone, serum; 0.50 mg sublingual; mean ± SD
Property Name: MRT
Quote the value and follow it with the unit of measurement.

Summary for this compound, "C[C@]12CC[C@H]3[C@@H](CCC4=CC(=O)CC[C@@]43C)[C@@H]1CC[C@@H]2O" : MRT is 57.1 min

FYI, the data here is from patent US9763884B2.
